# Tested target: T1, mouse CD40 antigen (ACROBiosystems) (mouse, UniProt P27512 24-193, limits assumed)
# T1 construct: Bought antigen coated on ELISA plates; construct not described
# T1 sequence (P27512 24-193 limits assumed): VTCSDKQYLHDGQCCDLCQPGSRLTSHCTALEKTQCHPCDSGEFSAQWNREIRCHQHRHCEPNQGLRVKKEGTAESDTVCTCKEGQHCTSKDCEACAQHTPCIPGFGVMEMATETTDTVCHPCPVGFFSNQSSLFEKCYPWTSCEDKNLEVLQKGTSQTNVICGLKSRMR
# Experimental details: ELISA, coated antigen
Parameter measured: binding result

[[record]]
binder = "anti-CD40 monoclonal antibody 1609CD (antibody, human IgG2, kappa, V domains shown) VH: EVQLVESGGGLVQPGGSLRLSCAASGFTFSNYYMSWVRQAPGKGLEWVGFIRNKANGYTTEYAASVKGRFTISRDNSKSTLYLQMNSLRAEDTAVYYCARYGGLKIGWYFDLWGQGTLVTVSS VL: DIQMTQSPSSLSASVGDRVTITCRASQTISSYLNWYQQKPGKAPKLLIYYTSTLQSGVPSRFSGSGSGTDYTLTISSLQPEDFATYYCQQGNAYPWTFGGGTKVEIKR"
measured_value = "no binding"

[[record]]
binder = "anti-CD40 monoclonal antibody 1606CD (antibody, human IgG2, kappa, V domains shown) VH: EVQLVESGGGLVQPGGSLRLSCAASGFTFSDYYMSWVRQAPGKGLEWVGFIRNKANGYTTEYAASVKGRFTISRDNSKNTLYLQMNSLRAEDTAVYYCARYGGLRQGWYFDVWGQGTLVTVSS VL: DIQMTQSPSSLSASVGDRVTITCRASQDIRNYLNWYQQKPGKAPKLLIYYTSRRDSGVPSRFSGSGSGTDYTLTISSLQPEDFATYFCQQGKTLPWTFGGGTKVEIKR"
measured_value = "no binding"

